experimentSummary: qHTS assay to identify small molecule antagonists of the estrogen receptor beta (ER-beta) signaling pathway - cell viability counter screen (AID 1259382); also: nearly all actives have a fitted effect of over 55% in size
particulars: ER-beta-UAS-bla HEK293T viability, CellTiter-Glo luminescence, 16 h; series mostly up to 92.4 µM
Records with an inconclusive call do not appear. Activity calls are given as the source filed them. Calls follow the shape of the dose curve; as a rule, active = well fitted cell-killing curve with a large enough effect in the repeat runs; inconclusive = weak or mixed curves; inactive = flat fitted curve, though single readings scatter.
Mark one answer only. Choices: active, inactive

State the result this test recorded for `CN(C)CCN1CCOCC1` .
inactive

State the result this test recorded for `CCc1ccc(C)nc1` .
inactive

State the result this test recorded for `NC(=O)C(=O)N/N=C/c1ccc([N+](=O)[O-])o1` .
inactive

State the result this test recorded for `O=c1cccc[nH]1` .
inactive

State the result this test recorded for `O=CC1CC1` .
inactive

State the result this test recorded for `COc1ccccc1C=O` .
inactive

State the result this test recorded for `CC(C)(c1cc(Br)c(O)c(Br)c1)c1cc(Br)c(O)c(Br)c1` .
active

State the result this test recorded for `CC(=O)Oc1ccc(C2(c3ccc(OC(C)=O)cc3)Oc3ccccc3NC2=O)cc1` .
inactive

State the result this test recorded for `Cc1cnccn1` .
inactive

State the result this test recorded for `CCN(CC)CCNc1ccc(CO)c2sc3ccccc3c(=O)c12` .
active

State the result this test recorded for `CCOC(=O)[C@@](C)(N)Cc1ccc(O)c(O)c1` .
inactive

State the result this test recorded for Clc1ccc(C(Cn2ccnc2)OCc2c(Cl)cccc2Cl)c(Cl)c1 (stereo not drawn) .
active

State the result this test recorded for `COC(=O)[C@]1(C)CCC[C@@]2(C)[C@H]1CC=C1C=C(C(C)C)CC[C@@H]12` .
inactive
